ASSAY METRIC: melting point

Check out these entries, answers already filled in.
Challenge: What does the data say about its melting point? Entry: CCCN1COc2cc3c(cc2C1=O)OC1CCCN1C3=O (racemic) [Example 24]
Response given: 153 to 154 °C

Challenge: What does the data say about its melting point? Entry: O=C1c2cc3c(cc2OCC1CO)C(=O)N1CCCC1O3 (centres unmarked) [Example 20]
Response given: 189 to 190 °C

Challenge: What does the data say about its melting point? Entry: O=C1CCCN1CCCN1COc2cc3c(cc2C1=O)OC1CCCN1C3=O (racemic) [Example 27]
Response given: 189 to 190 °C

Challenge: What does the data say about its melting point? Entry: CC(C)N1COc2cc3c(cc2C1=O)OC1CCCN1C3=O (racemic) [Example 25]
Response given: 204 to 205 °C

Next:
Challenge: What does the data say about its melting point? Entry: CN1COc2cc3c(cc2C1=O)OC1CCCN1C3=O (racemic) [Example 22]
Response given: 195 to 196 °C

----------
Test system: AMPA receptors
Experiment: field EPSP amplitude in field CA1 of rat hippocampal slice
Assay type: cell-based
Conditions: rat hippocampal slice
Listing: AMP: concentration of modulator that increases the amplitude of the fEPSP by 10% of selected molecules
Enter your answer as a number in µM; do not include the unit.

Challenge: What does the data say about its AMP: concentration of modulator that increases the amplitude of the fEPSP by 10%? Entry: CN1COc2cc3c(cc2C1=O)OC1CCCN1C3=O (racemic) [Example 22]
Response given: 10

Challenge: What does the data say about its AMP: concentration of modulator that increases the amplitude of the fEPSP by 10%? Entry: O=C1c2cc3c(cc2OC2CCCN12)C(=O)N1OCCC1O3 (stereo not drawn) [Example 46]
Response given: 3

Challenge: What does the data say about its AMP: concentration of modulator that increases the amplitude of the fEPSP by 10%? Entry: O=C1c2cc3nc4n(c(=O)c3cc2OC2CCCN12)CCC4 (racemic) [Example 6]
Response given: 100

----------
ASSAY METRIC: melting point

Challenge: What does the data say about its melting point? Entry: O=C(CN1COc2cc3c(cc2C1=O)OC1CCCN1C3=O)N1CCCC1 (racemic)
Response given: 257 to 259 °C

Challenge: What does the data say about its melting point? Entry: CCN1COc2cc3c(cc2C1=O)OCN(CC)C3=O
Response given: 236 to 237 °C

Challenge: What does the data say about its melting point? Entry: O=C1c2cc3c(cc2OCN1C1CCCC1)C(=O)N1CCCC1O3 (racemic)
Response given: 184 to 188 °C

Challenge: What does the data say about its melting point? Entry: COC(=O)CN1COc2cc3c(cc2C1=O)OC1CCCN1C3=O (racemic)
Response given: 161 to 162 °C

Challenge: What does the data say about its melting point? Entry: O=C1c2cc3c(cc2OCN1CC(F)(F)F)C(=O)N1CCCC1O3 (racemic)
Response given: 179 to 180 °C

Challenge: What does the data say about its melting point? Entry: CCN1COc2cc3c(cc2C1=O)OC1CCCN1C3=O (racemic)
Response given: 197 to 198 °C

Challenge: What does the data say about its melting point? Entry: O=C1NCOc2cc3c(cc21)OC1CCCN1C3=O (racemic)
Response given: 270 to 275 °C (dec.)

Challenge: What does the data say about its melting point? Entry: O=C1c2cc3c(cc2OCN1CCCN1CCOCC1)C(=O)N1CCCC1O3 (racemic)
Response given: 153 to 155 °C

Challenge: What does the data say about its melting point? Entry: O=C1c2cc3c(cc2OCN1CCO)C(=O)N(CCO)CO3
Response given: 237 to 238 °C
